assay.info: cell viability in Huh7 cells, primary screen, cytotoxicity control for HCV replication inhibitor project, CellTiter-Glo luminescence, basal, 48 h (AID 1143);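 note: Huh7 hepatoma cells carrying a hepatitis C replication reporter with no stimulus; test concentration not given here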
settings: Huh7 HCV replicon, called active from +8 up or from −8 down
The source made the active and inactive calls.
Outcome field: choose from t (active), f (inactive)

COc1ccc([Si](C)(C)[C@@H]2[C@@H](CCO)O[C@]3(C(=O)N(Cc4ccc(NC(=O)[C@H](C)O)cc4)c4ccccc43)[C@H]2C)cc1	t
CO[C@@H]1COC(=O)CC=C[C@@H](C)[C@H](OC)COC(=O)CC=C[C@H]1C	f
CO[C@@H]1COC(=O)CC=C[C@H](C)COC(=O)[C@H](Cc2ccccc2)NC(=O)CC=C[C@H]1C	f
C=CC[C@]1(C(=O)N2CCCCC2)N=C(c2ccc(OCCCO)cc2)O[C@H]1c1ccccc1N=[N+]=[N-]	f
CCCNC(=O)[C@@]1(Sc2ccc(C)cc2)CC(=O)N(Cc2ccccc2Cl)[C@@H]1c1ccc(CO)cc1	f

Proceed to the following item.
Please state the recorded outcome for this compound: CCOC(=O)C[C@H]1[C@H](OC(=O)Cc2ccc3c(c2)OCO3)[C@@H](NC(=O)c2ccc3ccccc3c2)c2cc(OCCCO)ccc2N1C(=O)Cc1ccc(OC)cc1 f
